Entry source: patent US20240059799A1

Entries annotated with measured Bioactivity relative to TL1A-0002
- subject of test: T1, recombinant human TL1A (human, UniProt O95150 71-251)
- T1 construct: homotrimer; biotinylated for SPR capture; the ELISA paragraphs say only 'recombinant TL1A'; also called TNFSF15
- T1 chain: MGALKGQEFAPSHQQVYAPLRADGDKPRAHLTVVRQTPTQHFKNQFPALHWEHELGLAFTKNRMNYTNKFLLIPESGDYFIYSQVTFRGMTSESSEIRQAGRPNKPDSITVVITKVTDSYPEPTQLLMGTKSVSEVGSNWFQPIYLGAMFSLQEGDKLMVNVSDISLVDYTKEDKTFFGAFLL
- method notes: competition ELISA vs bio-TL1A-0002
Report the value in fold with no unit label.

Ask: Given the binder TL1A-0079 (antibody, IgG1, V domains shown, IgG1/kappa variant of TL1A-0002) VH: QVQLVQSGAEVKKPGASVKVSCKASGYDFTYYGISWVRQAPGQGLEWMGWISTYQGNTHYARMLQGRVTMTTDTSTRTAYMELRSLRSDDTAVYYCARENYYGSGAYRGGMDVWGQGTTVTVSS VL: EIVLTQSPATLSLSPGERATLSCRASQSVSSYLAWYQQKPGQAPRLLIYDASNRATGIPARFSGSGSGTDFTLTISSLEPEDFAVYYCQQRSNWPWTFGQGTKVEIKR , write its reported Bioactivity relative to TL1A-0002.
Reply: 1.3

---
Ask: Given the binder TL1A-0086 (antibody, IgG1, V domains shown, IgG1/kappa variant of TL1A-0002) VH: QVQLVQSGAEVKKPGASVKVSCKASGYDFTYYGISWVRQAPGQGLEWMGWASTYNGNTHYAPSLQGRVTMTTDTSTRTAYMELRSLRSDDTAVYYCARENYYGSGAYRGGMDVWGQGTTVTVSS VL: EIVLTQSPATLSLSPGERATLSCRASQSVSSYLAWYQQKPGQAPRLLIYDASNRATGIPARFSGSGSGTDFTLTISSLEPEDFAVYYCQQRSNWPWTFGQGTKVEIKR , write its reported Bioactivity relative to TL1A-0002.
Reply: 1.1
